- Target Under Test: T1, GFP-9S library array, motif 4 ND N98M;D124Y (synthetic construct, N98M;D124Y)
- T1 chain: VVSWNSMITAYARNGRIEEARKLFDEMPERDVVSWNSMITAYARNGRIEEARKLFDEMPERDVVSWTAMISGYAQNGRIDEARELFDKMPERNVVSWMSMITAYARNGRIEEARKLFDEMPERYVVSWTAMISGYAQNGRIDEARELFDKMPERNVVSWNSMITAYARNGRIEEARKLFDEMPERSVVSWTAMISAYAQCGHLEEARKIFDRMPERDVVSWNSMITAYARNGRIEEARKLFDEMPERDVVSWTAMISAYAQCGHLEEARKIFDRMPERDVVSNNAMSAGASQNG
- Test Name: high-throughput RNA pulldown from lysate on Ni-NTA beads; HRP: 50 mM Tris pH 8, 150 mM NaCl, 1 mM beta-mercaptoethanol, 50 ug/ml BSA, 3 ug/ml yeast RNA, 0.5% heparin; ITC and FP: Tris pH 8, 200 mM KCl, 5% glycerol; MST: 50 mM Tris pH 8, 200 mM NaCl, 1 mM DTT, BSA, heparin, 0.05% Tween 20
- Stated Conditions: tags: N-terminal His-eGFP; label: 5' IRDye 800CW
pKd: −log10 of the molar value.
Value Kind: pKd

> print(dat)
                            binder  readout.value
1  AUUAUACGUGA (ssRNA) [IR-rpoA-U]           6.17
2  AUUAAACGUGA (ssRNA) [IR-rpoA-A]           6.31
